Target: UniProt:Q96LA8
Sequence (Q96LA8 whole entry): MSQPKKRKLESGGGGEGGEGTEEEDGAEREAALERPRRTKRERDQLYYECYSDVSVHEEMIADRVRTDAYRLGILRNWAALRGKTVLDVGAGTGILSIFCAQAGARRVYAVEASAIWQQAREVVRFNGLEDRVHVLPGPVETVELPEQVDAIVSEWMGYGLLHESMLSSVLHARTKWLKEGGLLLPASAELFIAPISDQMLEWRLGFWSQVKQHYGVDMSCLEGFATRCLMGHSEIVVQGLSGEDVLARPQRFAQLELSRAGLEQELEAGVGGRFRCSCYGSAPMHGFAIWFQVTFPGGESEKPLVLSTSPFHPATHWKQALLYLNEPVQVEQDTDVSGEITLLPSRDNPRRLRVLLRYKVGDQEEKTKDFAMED
Value kind: pIC50
Conceptually, pIC50 converts a concentration in mol/L into minus its log10.

Request the reported pIC50 associated with Nc1ncnc2c1ncn2[C@@H]1O[C@H](CSCC[C@H](N)C(=O)O)[C@@H](O)[C@H]1O
6.21
